Attribution: patent US11053242B2

- Assay text: In vitro human intestinal S9 hydrolysis assay (formation of compound 1-1)
- Experimental setup: human intestinal S9, 1 uM, 37° C., up to 60 minutes
Attribute measured: S9 Assay (ability to form compound 1-1)

Examples from the recorded data:
[[record]]
compound = "COc1cc2c(cc1OC)[C@H]1CC(COC(=O)CC(C)(C)C(=O)O)[C@H](CC(C)C)CN1CC2 (some centres unmarked)"
attribute_measured = "S9 Assay (ability to form compound 1-1)"
value_observed = "+"

[[record]]
compound = "COc1cc2c(cc1OC)[C@H]1C[C@@H](COC(=O)CC3CCCN3)[C@H](CC(C)C)CN1CC2 (some centres unmarked)"
attribute_measured = "S9 Assay (ability to form compound 1-1)"
value_observed = "++"

[[record]]
compound = "COc1cc2c(cc1OC)[C@H]1C[C@@H](COC(=O)C3CCNC3)[C@H](CC(C)C)CN1CC2 (some centres unmarked)"
attribute_measured = "S9 Assay (ability to form compound 1-1)"
value_observed = "++"

[[record]]
compound = "COc1cc2c(cc1OC)[C@H]1C[C@@H](COC(=O)C[C@H]3CCNC3)[C@H](CC(C)C)CN1CC2"
attribute_measured = "S9 Assay (ability to form compound 1-1)"
value_observed = "+"

[[record]]
compound = "COc1cc2c(cc1OC)[C@H]1C[C@@H](COC(=O)N3CC(C(=O)O)C3)[C@H](CC(C)C)CN1CC2"
attribute_measured = "S9 Assay (ability to form compound 1-1)"
value_observed = "+"

[[record]]
compound = "COc1cc2c(cc1OC)[C@H]1C[C@@H](COC(=O)[C@@H]3CCNC3)[C@H](CC(C)C)CN1CC2"
attribute_measured = "S9 Assay (ability to form compound 1-1)"
value_observed = "++"

[[record]]
compound = "COc1cc2c(cc1OC)[C@H]1C[C@@H](COC(=O)CC3CCN(C)C3)[C@H](CC(C)C)CN1CC2 (some centres unmarked)"
attribute_measured = "S9 Assay (ability to form compound 1-1)"
value_observed = "+++"

[[record]]
compound = "COc1cc2c(cc1OC)[C@H]1C[C@@H](COC(=O)N3C[C@@H](C)N[C@@H](C)C3)[C@H](CC(C)C)CN1CC2"
attribute_measured = "S9 Assay (ability to form compound 1-1)"
value_observed = "+"

[[record]]
compound = "COc1cc2c(cc1OC)[C@H]1C[C@@H](COC(=O)CCCN)[C@H](CC(C)C)CN1CC2"
attribute_measured = "S9 Assay (ability to form compound 1-1)"
value_observed = "++"

[[record]]
compound = "COc1cc2c(cc1OC)[C@H]1C[C@@H](COC(=O)NC3C4CCC(C4)C3C(=O)O)[C@H](CC(C)C)CN1CC2 (some centres unmarked)"
attribute_measured = "S9 Assay (ability to form compound 1-1)"
value_observed = "+"


Lookup: Supply recorded S9 Assay (ability to form compound 1-1) for `COc1cc2c(cc1OC)[C@H]1C[C@@H](COC(=O)C3CCNCC3)[C@H](CC(C)C)CN1CC2` here.
Found: ++

Lookup: Supply recorded S9 Assay (ability to form compound 1-1) for `COc1cc2c(cc1OC)[C@H]1C[C@@H](COC(=O)N3CCC(C(=O)O)CC3)[C@H](CC(C)C)CN1CC2` here.
Found: +

Lookup: Supply recorded S9 Assay (ability to form compound 1-1) for `COc1cc2c(cc1OC)[C@H]1C[C@@H](COC(=O)N3CCC(C(=O)O)(N(C)C)CC3)[C@H](CC(C)C)CN1CC2` here.
Found: +

Lookup: Supply recorded S9 Assay (ability to form compound 1-1) for `COc1cc2c(cc1OC)[C@H]1C[C@@H](COC(=O)N3CCN[C@@H](C(=O)O)C3)[C@H](CC(C)C)CN1CC2` here.
Found: +

====

Ki tested on VMAT2 (human platelet homogenate) (Homo sapiens (Human), UniProt Q05940): recorded values;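 also: competition binding with 90 min incubation at 25 °C, after which filter-retained radioligand was measured by scintillation counting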
Sequence (Q05940 whole entry): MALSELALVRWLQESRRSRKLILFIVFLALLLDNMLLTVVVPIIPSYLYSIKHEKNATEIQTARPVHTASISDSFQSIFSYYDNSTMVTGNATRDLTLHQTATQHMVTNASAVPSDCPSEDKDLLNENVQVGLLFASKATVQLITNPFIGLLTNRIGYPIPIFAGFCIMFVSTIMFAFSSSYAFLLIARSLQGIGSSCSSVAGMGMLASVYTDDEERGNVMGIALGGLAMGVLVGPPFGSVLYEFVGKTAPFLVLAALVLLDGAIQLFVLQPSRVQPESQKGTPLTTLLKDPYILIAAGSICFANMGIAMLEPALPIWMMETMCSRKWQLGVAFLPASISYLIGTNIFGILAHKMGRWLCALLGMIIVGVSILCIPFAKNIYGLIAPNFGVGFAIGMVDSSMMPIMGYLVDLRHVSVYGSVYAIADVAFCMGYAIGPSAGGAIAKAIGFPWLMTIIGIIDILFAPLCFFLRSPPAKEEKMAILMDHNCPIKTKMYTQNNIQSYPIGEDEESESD

Examples from the recorded data:
[[record]]
compound = "COc1cc2c(cc1OC)[C@H]1C[C@@H](COC(=O)NCC[C@H](O)C(=O)O)[C@H](CC(C)C)CN1CC2 [Compound 5-56]"
value_observed = "10 to 500 nM"

[[record]]
compound = "COc1cc2c(cc1OC)[C@H]1C[C@@H](COC(=O)C3CCCCC3C(=O)O)[C@H](CC(C)C)CN1CC2 (some centres unmarked) [Compound 3-6]"
value_observed = "10 to 500 nM"

[[record]]
compound = "COc1cc2c(cc1OC)[C@H]1C[C@@H](COC(=O)[C@H]3CCCC[C@@H]3N)[C@H](CC(C)C)CN1CC2 [Compound 4-25]"
value_observed = "10 to 500 nM"

[[record]]
compound = "COc1cc2c(cc1OC)[C@H]1C[C@@H](COC(=O)CC(N)C(C)C)[C@H](CC(C)C)CN1CC2 (some centres unmarked) [Compound 4-17]"
value_observed = "< 10 nM"

[[record]]
compound = "COc1cc2c(cc1OC)[C@H]1C[C@@H](COC(=O)C3CCNCC3)[C@H](CC(C)C)CN1CC2 [Compound 4-1]"
value_observed = "< 10 nM"


Lookup: Retrieve Ki on VMAT2 (human platelet homogenate) (Homo sapiens (Human), UniProt Q05940); query COc1cc2c(cc1OC)[C@H]1C[C@@H](COC(=O)C3CCNCC3C)[C@H](CC(C)C)CN1CC2 (some centres unmarked) [Compound 4-15]
Found: < 10 nM

Lookup: Retrieve Ki on VMAT2 (human platelet homogenate) (Homo sapiens (Human), UniProt Q05940); query COc1cc2c(cc1OC)[C@H]1C[C@@H](COC(=O)NCCC(=O)O)[C@H](CC(C)C)CN1CC2 [Compound 5-1]
Found: < 10 nM

====

- Assay text: In vitro human intestinal S9 hydrolysis assay (formation of compound 1-1)
- Experimental setup: human intestinal S9, 1 uM, 37° C., up to 60 minutes
Attribute measured: S9 Assay (ability to form compound 1-1)

Examples from the recorded data:
[[record]]
molecule = "COc1cc2c(cc1OC)[C@H]1C[C@@H](COC(=O)N[C@@H](CC(C)C)C(=O)O)[C@H](CC(C)C)CN1CC2 [Compound 5-20]"
value_observed = "++"

[[record]]
molecule = "COc1cc2c(cc1OC)[C@H]1C[C@@H](COC(=O)NC3(C(=O)O)CCCC3)[C@H](CC(C)C)CN1CC2 [Compound 5-39]"
value_observed = "+++"

[[record]]
molecule = "COc1cc2c(cc1OC)[C@H]1C[C@@H](COC(=O)C[C@@H]3CCCN3)[C@H](CC(C)C)CN1CC2 [Compound 4-36]"
value_observed = "+++"

[[record]]
molecule = "COc1cc2c(cc1OC)[C@H]1C[C@@H](COC(=O)C3CCN(C)CC3)[C@H](CC(C)C)CN1CC2 [Compound 2-25]"
value_observed = "+++"

[[record]]
molecule = "COc1cc2c(cc1OC)[C@H]1C[C@@H](COC(=O)C3CC3C(=O)O)[C@H](CC(C)C)CN1CC2 (stereo partly shown) [Compound 3-4]"
value_observed = "++"


Lookup: Supply recorded S9 Assay (ability to form compound 1-1) for COc1cc2c(cc1OC)[C@H]1C[C@@H](COC(=O)NCC(O)C(=O)O)[C@H](CC(C)C)CN1CC2 (stereo partly shown) [Compound 5-11] here.
Found: ++

Lookup: Supply recorded S9 Assay (ability to form compound 1-1) for COc1cc2c(cc1OC)[C@H]1C[C@@H](COC(=O)CC3CCCNC3)[C@H](CC(C)C)CN1CC2 (stereo partly shown) [Compound 4-10] here.
Found: ++

====

- Assay text: In vitro human intestinal S9 hydrolysis assay (formation of compound 1-1)
- Experimental setup: human intestinal S9, 1 uM, 37° C., up to 60 minutes
Attribute measured: S9 Assay (ability to form compound 1-1)

[[record]]
molecule = "COc1cc2c(cc1OC)[C@H]1C[C@@H](COC(=O)CC3CCNC3)[C@H](CC(C)C)CN1CC2 (stereo partly shown)"
attribute_measured = "S9 Assay (ability to form compound 1-1)"
value_observed = "+"

[[record]]
molecule = "COc1cc2c(cc1OC)[C@H]1C[C@@H](COC(=O)NC3CCCCC3C(=O)O)[C@H](CC(C)C)CN1CC2 (stereo partly shown)"
attribute_measured = "S9 Assay (ability to form compound 1-1)"
value_observed = "+"

[[record]]
molecule = "COc1cc2c(cc1OC)[C@H]1C[C@@H](COC(=O)N(C)[C@H](C)C(=O)O)[C@H](CC(C)C)CN1CC2"
attribute_measured = "S9 Assay (ability to form compound 1-1)"
value_observed = "+"

[[record]]
molecule = "COc1cc2c(cc1OC)[C@H]1C[C@@H](COC(=O)N3CCOC(CC(=O)O)C3)[C@H](CC(C)C)CN1CC2 (stereo partly shown)"
attribute_measured = "S9 Assay (ability to form compound 1-1)"
value_observed = "+"


====

- Assay text: In vitro human intestinal S9 hydrolysis assay (formation of compound 1-1)
- Experimental setup: human intestinal S9, 1 uM, 37° C., up to 60 minutes
Attribute measured: S9 Assay (ability to form compound 1-1)

Examples from the recorded data:
[[record]]
compound = "COc1cc2c(cc1OC)[C@H]1C[C@@H](COC(=O)N3CCN[C@H](C)C3)[C@H](CC(C)C)CN1CC2"
value_observed = "+"

[[record]]
compound = "COc1cc2c(cc1OC)[C@H]1C[C@@H](COC(=O)C3CCNCC3C)[C@H](CC(C)C)CN1CC2 (stereo partly drawn)"
value_observed = "+"

[[record]]
compound = "COc1cc2c(cc1OC)[C@H]1C[C@@H](COC(=O)NCCCC(=O)O)[C@H](CC(C)C)CN1CC2"
value_observed = "+"

[[record]]
compound = "COc1cc2c(cc1OC)[C@H]1C[C@@H](COC(=O)C(C)(C)CC(=O)O)[C@H](CC(C)C)CN1CC2"
value_observed = "++"

[[record]]
compound = "COc1cc2c(cc1OC)[C@H]1C[C@@H](COC(=O)NC(C)CC(=O)O)[C@H](CC(C)C)CN1CC2 (stereo partly drawn)"
value_observed = "+"


Lookup: Supply recorded S9 Assay (ability to form compound 1-1) for `COc1cc2c(cc1OC)[C@H]1C[C@@H](COC(=O)N3CCNC[C@H]3C)[C@H](CC(C)C)CN1CC2` here.
Found: +

Lookup: Supply recorded S9 Assay (ability to form compound 1-1) for `COc1cc2c(cc1OC)[C@H]1C[C@@H](COC(=O)[C@@H]3CCCNC3)[C@H](CC(C)C)CN1CC2` here.
Found: +++

Lookup: Supply recorded S9 Assay (ability to form compound 1-1) for `COc1cc2c(cc1OC)[C@H]1C[C@@H](COC(=O)NCC3(CC(=O)O)CCCCC3)[C@H](CC(C)C)CN1CC2` here.
Found: +

Lookup: Supply recorded S9 Assay (ability to form compound 1-1) for `COc1cc2c(cc1OC)[C@H]1C[C@@H](COC(=O)NCC(=O)O)[C@H](CC(C)C)CN1CC2` here.
Found: +

Lookup: Supply recorded S9 Assay (ability to form compound 1-1) for COc1cc2c(cc1OC)[C@H]1C[C@@H](COC(=O)CC(C)CC(=O)O)[C@H](CC(C)C)CN1CC2 (stereo partly drawn) here.
Found: +++

Lookup: Supply recorded S9 Assay (ability to form compound 1-1) for `COc1cc2c(cc1OC)[C@H]1C[C@@H](COC(=O)CC(C)(C)CC(=O)O)[C@H](CC(C)C)CN1CC2` here.
Found: +

Lookup: Supply recorded S9 Assay (ability to form compound 1-1) for COc1cc2c(cc1OC)[C@H]1C[C@@H](COC(=O)N3CCC(C(=O)O)C3)[C@H](CC(C)C)CN1CC2 (stereo partly drawn) here.
Found: +
